Exercise: for every item that follows, state its recorded growth inhibition.
Method: NCI Yeast Anticancer Drug Screen. Data for the bub3 strain (AID 167)
Run Parameters: S. cerevisiae bub3 mutant strain, at 5.0 µM (retest, dose inferred, filed as 0.5), stronger effect = higher value
About 79,000 compounds went through this panel and 15% of them were active in at least one assay; those are over-represented in the sample as a whole. Calls of active or inactive are those of the source. Rule as the data show it: active = growth inhibition above about 70%; inactive = the rest.

Sample records with growth inhibition:
COc1cc(/C=C/C(=O)Sc2ccccc2)cc(OC)c1O; 2% (inactive)
CCN(CC)CCNc1ccc(OC)c2cccnc12; 10% (inactive)
OCCc1ccc(-n2cnc3c(Nc4ccc(Cl)cc4)ncnc32)cc1; 7% (inactive)

# return growth inhibition for each item in the list
1. CN(C)C(=O)c1cc(Cl)cc(-c2ccccc2)c1O
2. C=C1C(=O)O[C@@H]2C[C@]3(C)CC[C@]4(C)[C@H](CC[C@@H]5[C@@]6(C)CCC(=O)C(C)(C)[C@@H]6CC[C@]54C)[C@H]3[C@H]12
3. CC(=O)Oc1c(O)c2ccccc2c2ccccc12
4. O=C(CS)Nc1ccccc1
5. CCOC(=O)CN1CCC(C(=O)CC2(O)C3(Cl)C4(Cl)C5(Cl)C(Cl)(Cl)C6(Cl)C4(Cl)C2(Cl)C6(Cl)C53Cl)CC1 (centres undefined)
6. CN=C(NC1CCCCC1)c1ccc(NC(=O)c2ccc(C(=O)Nc3ccc(C(=NC)NC4CCCCC4)cc3)cc2)cc1
7. Nn1c2ccccc2c2ccccc21
8. Cc1nc2[nH]cc(C)c2c(=O)[nH]1

A.
1: 1% (inactive); 2: 4% (inactive); 3: 5% (inactive); 4: 3% (inactive); 5: 20% (inactive); 6: -1% (inactive); 7: -72% (inactive); 8: 2% (inactive)

* * *

Method: NCI Yeast Anticancer Drug Screen. Data for the sgs1 mgt1 strain (AID 161);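 also: 0% = growth of cultures given vehicle only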
Run Parameters: S. cerevisiae sgs1 mgt1 strain, at 5.0 µM (retest, dose inferred, filed as 0.5), stronger effect = higher value
Protocol: Growth inhibition of yeast strains with defined genetic alterations is measured as a screen for potential anti-cancer activity. Selected strains with alterations in DNA damage repair or cell cycle control were exposed to compounds and growth inhibition was measured relative to vehicle treated controls. The strain used in this assay is sgs1 mgt1
Compounds without any hit were thinned out: in the full panel of roughly 79,000, 15% have a hit.
Exercise: for every item that follows, state its recorded growth inhibition.
One number for each entry, in %.

Sample records with growth inhibition:
CC(=O)Oc1c(O)c2ccccc2c2ccccc12; 2
CC1=C(C(=O)Nc2cccc(Cl)c2)C(c2ccccc2F)C(C(=O)Nc2cccc(Cl)c2)=C(C)N1; 37
COC(=O)CCC(=O)N1C/C(=C\c2ccccc2)C(=O)/C(=C/c2ccccc2)C1; 5
COc1ccccc1NC(=O)O/N=C(/Cl)C(C)C; -32
COc1cccc2c1C(=O)c1c(O)c3c(c(O)c1C2=O)C[C@@](O)(C(O)CO)C[C@@H]3OC1CC(N(Cc2ccccc2)Cc2ccccc2)C(O)C(C)O1 (some centres not stated); 29

# return growth inhibition for each item in the list
1. N#C/C(=C\NC(=S)Nc1cc(Cl)ccc1Cl)c1nc2ccccc2s1
2. N#CC(O)C(Br)(Br)Br (configuration not stated)

A.
[2, -4]

* * *

Method: NCI Yeast Anticancer Drug Screen. Data for the mlh1 rad18 strain (AID 175)
Run Parameters: S. cerevisiae mlh1 rad18 strain growth inhibition; at 5.0 µM (retest, dose inferred, filed as 0.5); stronger effect = higher value
Method: Growth inhibition of yeast strains with defined genetic alterations is measured as a screen for potential anti-cancer activity. Selected strains with alterations in DNA damage repair or cell cycle control were exposed to compounds and growth inhibition was measured relative to vehicle treated controls. The strain used in this assay is mlh1 rad18
This is part of a sample that, as a whole, favours compounds with a hit. Of some 79,000 tested, about 15% had one in any assay. *1 amine or outer side, *2 acyl side, *3 side chain or, on linkers, in order; H or OH if unused. Where a SMILES comes first, the peptide text is derived from it. Bridges are numbered along the chain shown (N, C = ends). [ ]: non-standard residue; d: D form. The star is where a group is joined. ξ: configuration not given here. ξOrn(4,5-diOH) = O=C(C(CC(O)C(O)N[*:3])N[*:1])[*:2]; ξhTyr(βξ-OH,γξ-OH) = NC(C(=O)O)C(O)C(O)c1ccc(O)cc1; ξPro(3ξ-OH,4ξ-Me) = CC1CNC(C(=O)O)C1O; X1 = CCCCC/C=C/C/C=C\CCCCCCCC(=O)*; Hyp = O=C(O)[CH]1C[CH](O)CN1
Experimental Readout: growth inhibition (%)
One number for each entry, in %.

C=CCNc1nc2c(s1)C(=O)c1ccccc1C2=O; 98
Nc1ccc2c(c1)[nH]c(=O)c1c(Cl)cccc12; -87
CC(C)c1cc(C(C)C)c(Cl)c(Cl)c1O (tested in a mixture with another compound); -1
CCCCC/C=C/C/C=C\CCCCCCCC(=O)NC1CC(O)C(O)NC(=O)C2C(O)C(C)CN2C(=O)C(C(C)O)NC(=O)C(C(O)C(O)c2ccc(O)cc2)NC(=O)C2CC(O)CN2C(=O)C(C(C)O)NC1=O (stereo not drawn) (X1-[ξOrn(4,5-diOH)]T[Hyp][ξhTyr(βξ-OH,γξ-OH)]T[ξPro(3ξ-OH,4ξ-Me)]; lactam 1-C; configuration not given here); 40
O=S(O)CCCCCSSc1ccc(Cl)cc1; 8

# return growth inhibition for each item in the list
1. COc1ccc(/C=C2\SC(=S)N(/C=C(/C#N)C(=O)c3ccc4ccccc4c3)C2=O)cc1OC
2. O=C(OC1C=C=CS(=O)(=O)CC#C/C=C\1)c1cnc2ccccc2n1 (stereo not drawn)
3. COc1ccc(/C=N/NS(=O)(=O)c2ccccc2)cc1

A.
1. 5
2. 19
3. -2

* * *

Method: NCI Yeast Anticancer Drug Screen. Data for the sgs1 mgt1 strain (AID 161);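 also: 0% = growth of cultures given vehicle only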
Run Parameters: S. cerevisiae sgs1 mgt1 strain, at 50.0 µM, stronger effect = higher value
Method: Growth inhibition of yeast strains with defined genetic alterations is measured as a screen for potential anti-cancer activity. Selected strains with alterations in DNA damage repair or cell cycle control were exposed to compounds and growth inhibition was measured relative to vehicle treated controls. The strain used in this assay is sgs1 mgt1
About 79,000 compounds went through this panel and 15% of them were active in at least one assay; those are over-represented in the sample as a whole. Where a SMILES comes first, the peptide text is derived from it. The star is where a group is joined. Cbz = O=C(OCc1ccccc1)*
growth inhibition below 90% gives 0 (no); growth inhibition at or above it gives 1 (yes).

Take a look at these entries with their results.
O=C(Oc1c([N+](=O)[O-])cc(-c2ccc([N+](=O)[O-])cc2)cc1[N+](=O)[O-])c1ccccc1; 0 (no)
COc1ccc(-c2nnc(C)nc2-c2ccc(OC)cc2)cc1; 0 (no)
CCc1cccc(CC)c1NC1=C(Cl)C(=O)c2ccccc2C1=O; 0 (no)
CC(C)CCCC(C)C1CCC2C3CC=C4CC(OC(=O)Nc5ccc(S(=O)(=O)c6ccc(F)cc6)cc5)CCC4(C)C3CCC12C (stereo not given); 1 (yes)

Q. Tell me whether growth inhibition is at least 90% here: "CCn1c2ccccc2c2ccc(C3C(C(=O)OC)=C(C)NC(C)=C3C(=O)OC)cc21"
A. 0 (no)

Q. Tell me whether growth inhibition is at least 90% here: "Oc1cc(CNCc2ccccc2)c(O)c(CNCc2ccccc2)c1"
A. 0 (no)

Q. Tell me whether growth inhibition is at least 90% here: "CCCSc1n[nH]c(=S)s1"
A. 0 (no)

Q. Tell me whether growth inhibition is at least 90% here: "OCCc1c2ccccc2cc2ccccc12"
A. 0 (no)

Q. Tell me whether growth inhibition is at least 90% here: "Cc1cc(N)c2cc(NC(=O)Nc3ccc4nc(C)cc(N)c4c3)ccc2n1"
A. 1 (yes)

Q. Tell me whether growth inhibition is at least 90% here: CCC[CH2][Sn]([CH2]CCC)([O]C(=O)C(OC)c1ccccc1)[O]C(=O)C(OC)c1ccccc1 (stereo not given)
A. 0 (no)

Q. Tell me whether growth inhibition is at least 90% here: "CCc1ccc(N(C(C)=O)C2=C(Cl)C(=O)c3ccccc3C2=O)cc1"
A. 1 (yes)

Q. Tell me whether growth inhibition is at least 90% here: CCOC(=O)CNC(=O)CNC(=O)CNC(=O)OCc1ccccc1 (Cbz-Gly-Gly-Gly-OEt)
A. 0 (no)

Q. Tell me whether growth inhibition is at least 90% here: "O=C(O)c1ccc2c(O)c3ccccc3c(O)c2c1"
A. 1 (yes)

Q. Tell me whether growth inhibition is at least 90% here: "CCC(C)(C[NH-])C[NH-].[Cl][Pt+2][Cl]"
A. 0 (no)

Q. Tell me whether growth inhibition is at least 90% here: CCCCN(CC(O)c1ccc(Cl)cc1)c1ccccc1 (stereo not given)
A. 1 (yes)

Q. Tell me whether growth inhibition is at least 90% here: O=C(Oc1ccccc1)C1CCCCC1C(=O)Oc1ccccc1 (stereo not given)
A. 0 (no)

Q. Tell me whether growth inhibition is at least 90% here: "COC(=O)c1cc(=O)n(-c2ccccc2C(F)(F)F)c(SC)n1"
A. 1 (yes)

Q. Tell me whether growth inhibition is at least 90% here: CC(=O)c1c2c(cc3c1CC1(Cc4cc5c(cc4C1)C(=O)CCC5)C3)CCCC2 (stereo not given)
A. 0 (no)
